STUDY_SYSTEM: HIV-1 gp120 V3 hypervariable loop (Human immunodeficiency virus type 1 group M subtype B)
Construct: Polystyrene plates coated with recombinant gp120 and gp160, respectively; purchased American Bio-Technologies, Inc., Cambridge, Mass; host or cells: baculovirus expression system
ASSAY_OVERVIEW: biochemical
Format: binding
EXPERIMENTAL_CONDITIONS: read-out: percentage of inhibition
VALUE_KIND: inhibition at 50 µg/mL (%)
Numeric answer only, unit % assumed.

Reference set, count: 3
| STRUCTURE_NOTATION | inhibition at 50 µg/mL / % |
| --- | --- |
| CC1=C(C(=O)O)C(=O)C(C(C)(C)C)=CC1=C(c1cc(C(C)(C)C)c(O)c(C(=O)O)c1C)c1cc(C(C)(C)C)c(O)c(C(=O)O)c1C | 38.6 |
| CC(=O)C1=CC(=C(c2ccc(O)c(C(C)=O)c2)c2ccc(O)c(C(C)=O)c2)C=CC1=O | 69.4 |
| C=Cc1c(C)c2cc3nc(c(CC(=O)O)c4[nH]c(cc5nc(cc1[nH]2)C(C)=C5CC)c(C)c4C(=O)O)[C@@H](CCC(=O)O)[C@@H]3C | 76.3 |

compound `c1cnc2c(c1)CCCCCCCCCC2` , inhibition at 50 µg/mL observed: 36.8
